The measured values listed here are drawn from patent US20050176630A1.

- target.or.system: T1, NPY Y2 receptor (expressed on a cell line)
- T1 sequence (P49146 whole entry, species assumed, looked up): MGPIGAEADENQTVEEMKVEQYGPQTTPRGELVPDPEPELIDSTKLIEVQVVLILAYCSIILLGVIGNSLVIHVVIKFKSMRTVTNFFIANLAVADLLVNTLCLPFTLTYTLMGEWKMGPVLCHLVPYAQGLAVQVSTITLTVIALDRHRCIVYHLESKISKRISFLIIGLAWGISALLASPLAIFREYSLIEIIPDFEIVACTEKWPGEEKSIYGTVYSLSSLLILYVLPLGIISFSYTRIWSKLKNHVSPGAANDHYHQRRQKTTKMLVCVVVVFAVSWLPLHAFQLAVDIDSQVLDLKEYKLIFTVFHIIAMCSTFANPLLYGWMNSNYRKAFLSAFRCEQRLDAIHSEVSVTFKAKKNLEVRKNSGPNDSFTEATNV
- assay.overview: receptor-binding study on a cell line expressing the NPY Y2 receptor; labelled ligand not named
No end group written: not given here.
measured.attribute: IC50 (nM)
Kindly provide the numeric value in nM only, without the unit symbol.

# IC50 lookup, item Ac-LRHYLNLLTRQRY (ends and bridges not checked) [N-acetyl (Leu^28, Leu^31) NPY (24-36)] 1.3
